Origin of values: paper PMC5655360

# ASSAYED TARGET: CYP3A4 (Homo sapiens)
# Sequence (P08684 whole entry): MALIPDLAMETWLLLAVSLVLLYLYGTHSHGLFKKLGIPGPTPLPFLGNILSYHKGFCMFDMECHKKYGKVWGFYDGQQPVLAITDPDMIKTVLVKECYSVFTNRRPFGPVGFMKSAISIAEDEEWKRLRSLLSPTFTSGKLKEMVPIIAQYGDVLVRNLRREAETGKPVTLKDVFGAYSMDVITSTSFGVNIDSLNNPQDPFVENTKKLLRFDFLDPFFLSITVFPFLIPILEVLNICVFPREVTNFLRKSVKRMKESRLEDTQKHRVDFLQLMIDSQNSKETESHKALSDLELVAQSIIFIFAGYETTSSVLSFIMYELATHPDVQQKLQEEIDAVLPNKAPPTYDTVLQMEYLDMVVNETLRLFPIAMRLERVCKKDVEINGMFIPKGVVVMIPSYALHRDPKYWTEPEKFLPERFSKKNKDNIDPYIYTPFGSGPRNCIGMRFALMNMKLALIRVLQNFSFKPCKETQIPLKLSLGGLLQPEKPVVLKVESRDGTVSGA
# METHOD NOTES: in vitro
# EXPERIMENTAL CONTEXT: hepatocytes
READOUT: kinact

query: // kinact lookup, key: `CC[C@H]1OC(=O)[C@H](C)[C@@H](O[C@H]2C[C@@](C)(OC)[C@@H](O)[C@H](C)O2)[C@H](C)[C@@H](O[C@@H]2O[C@H](C)C[C@H](N(C)C)[C@H]2O)[C@](C)(O)C[C@@H](C)/C(=N\OCOCCOC)[C@H](C)[C@@H](O)[C@]1(C)O`
result: 0.000161 s⁻¹

====

Would you kindly list KI (inactivation) for each of these compounds?
# ASSAYED TARGET: CYP3A4 (Homo sapiens)
# METHOD NOTES: in vitro
# EXPERIMENTAL CONTEXT: hepatocytes
The reply should consist of the numeric value with the unit placed after it.

query: Value wanted: KI (inactivation) (CYP3A4 (Homo sapiens)) of entry CC[C@H]1OC(=O)[C@H](C)[C@@H](O[C@H]2C[C@@](C)(OC)[C@@H](O)[C@H](C)O2)[C@H](C)[C@@H](O[C@@H]2O[C@H](C)C[C@H](N(C)C)[C@H]2O)[C@](C)(O)C[C@@H](C)/C(=N\OCOCCOC)[C@H](C)[C@@H](O)[C@]1(C)O [Roxithromycin]
result: 13.1 µM

query: Give recorded KI (inactivation) with CYP3A4 (Homo sapiens) for the following compound: CC[C@H]1OC(=O)[C@H](C)[C@@H](O[C@H]2C[C@@](C)(OC)[C@@H](O)[C@H](C)O2)[C@H](C)[C@@H](O[C@@H]2O[C@H](C)C[C@H](N(C)C)[C@H]2O)[C@](C)(OC)C[C@@H](C)C(=O)[C@H](C)[C@@H](O)[C@]1(C)O [Clarithromycin]
result: 16 µM
